Biological target: Integrin alpha-IIb/beta-3 (Homo sapiens, UniProt P05106+P08514)
Sequence (P05106 27-788 limits assumed): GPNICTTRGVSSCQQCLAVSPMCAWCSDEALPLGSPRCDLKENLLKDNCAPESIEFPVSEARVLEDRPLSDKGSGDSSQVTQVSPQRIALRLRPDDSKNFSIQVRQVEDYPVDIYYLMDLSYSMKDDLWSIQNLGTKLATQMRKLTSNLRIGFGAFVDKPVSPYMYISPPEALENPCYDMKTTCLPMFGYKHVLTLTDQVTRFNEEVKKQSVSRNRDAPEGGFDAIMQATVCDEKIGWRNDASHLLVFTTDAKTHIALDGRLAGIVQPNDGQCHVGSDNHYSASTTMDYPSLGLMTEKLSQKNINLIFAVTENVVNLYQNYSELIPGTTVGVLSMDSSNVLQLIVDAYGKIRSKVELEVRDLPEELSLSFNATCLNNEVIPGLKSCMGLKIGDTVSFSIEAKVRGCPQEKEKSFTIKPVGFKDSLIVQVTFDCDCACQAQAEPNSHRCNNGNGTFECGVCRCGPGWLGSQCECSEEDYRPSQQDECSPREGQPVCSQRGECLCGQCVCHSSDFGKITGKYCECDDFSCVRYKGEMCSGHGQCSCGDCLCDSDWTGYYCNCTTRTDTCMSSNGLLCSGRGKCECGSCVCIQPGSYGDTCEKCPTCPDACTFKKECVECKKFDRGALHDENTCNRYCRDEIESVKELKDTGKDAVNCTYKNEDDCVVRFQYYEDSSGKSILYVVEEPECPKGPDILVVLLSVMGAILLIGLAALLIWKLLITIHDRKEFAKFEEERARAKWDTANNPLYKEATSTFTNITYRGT
Sequence (P08514 32-887 limits assumed): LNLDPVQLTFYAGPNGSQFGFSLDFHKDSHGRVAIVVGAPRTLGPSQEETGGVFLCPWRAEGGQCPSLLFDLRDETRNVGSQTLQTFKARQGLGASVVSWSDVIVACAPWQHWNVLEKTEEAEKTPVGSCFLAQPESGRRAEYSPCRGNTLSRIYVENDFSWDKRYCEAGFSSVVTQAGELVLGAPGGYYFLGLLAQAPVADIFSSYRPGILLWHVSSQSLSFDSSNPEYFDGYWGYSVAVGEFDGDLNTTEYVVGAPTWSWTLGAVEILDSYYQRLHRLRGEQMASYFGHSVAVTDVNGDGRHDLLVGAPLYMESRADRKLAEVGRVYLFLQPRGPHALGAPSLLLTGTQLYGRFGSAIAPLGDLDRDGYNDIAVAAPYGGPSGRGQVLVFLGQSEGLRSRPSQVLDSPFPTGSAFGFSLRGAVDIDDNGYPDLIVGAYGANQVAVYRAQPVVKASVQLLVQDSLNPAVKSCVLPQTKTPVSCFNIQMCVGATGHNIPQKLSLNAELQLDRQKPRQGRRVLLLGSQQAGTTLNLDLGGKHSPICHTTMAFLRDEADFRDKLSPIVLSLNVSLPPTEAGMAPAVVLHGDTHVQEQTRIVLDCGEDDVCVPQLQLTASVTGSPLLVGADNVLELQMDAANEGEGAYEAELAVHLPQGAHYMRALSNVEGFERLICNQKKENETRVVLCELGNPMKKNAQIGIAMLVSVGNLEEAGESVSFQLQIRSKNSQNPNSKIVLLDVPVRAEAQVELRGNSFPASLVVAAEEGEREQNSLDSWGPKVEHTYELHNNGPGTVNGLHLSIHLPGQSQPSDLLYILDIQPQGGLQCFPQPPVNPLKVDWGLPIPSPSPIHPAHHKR
Sequence (P08514 891-1039 limits assumed): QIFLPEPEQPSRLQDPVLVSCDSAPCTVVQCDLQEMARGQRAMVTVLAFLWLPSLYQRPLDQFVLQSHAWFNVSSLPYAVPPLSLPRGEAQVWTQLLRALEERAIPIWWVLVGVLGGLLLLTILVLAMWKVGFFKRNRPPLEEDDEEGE
Assay: Binding affinity for soluble GPIIb/IIIa captured on fibrinogen coated microtiter plate; 1:3 mixture enriched in the slower eluting diastereoisomer
Assay type: protein-complex assay

smiles-repr	experimental-system	quantity-unit	IC50
C[C@@H](CC(=O)O)N1CC(=O)N(C(C)(C)C)c2ccc(C#Cc3ccc(C(=N)N)cc3)cc2C1=O	Integrin alpha-IIb/beta-3 (Homo sapiens, UniProt P05106+P08514)	nM	12

----------
Biological target: Integrin alpha-IIb/beta-3 (Homo sapiens, UniProt P05106+P08514)
Assay: Binding affinity for soluble GPIIb/IIIa captured on fibrinogen coated microtiter plate
Type: protein-complex assay
IC50 values by entry

compound	IC50, nM
CN1C(=O)CN(CCC(=O)O)C(=O)c2cc(C#Cc3ccc(C(=N)N)cc3)ccc21	11
C[C@@H](CC(=O)O)N1CC(=O)N(C(C)(C)C)c2c(Cl)cc(C#Cc3ccc(C(=N)N)cc3)cc2C1=O (stereo in doubt; 10)	140
C[C@@H](CC(=O)O)N1CC(=O)N(C(C)(C)C)c2c(Cl)cc(C#Cc3ccc(C(=N)N)cc3)cc2C1=O (stereo in doubt; 9)	2
C[C@H](CC(=O)O)N1CC(=O)N(C(C)(C)C)c2c(Cl)cc(C#Cc3ccc(C(=N)N)cc3)cc2C1=O (stereo in doubt; 11)	18
C[C@H](CC(=O)O)N1CC(=O)N(C(C)(C)C)c2c(Cl)cc(C#Cc3ccc(C(=N)N)cc3)cc2C1=O (stereo in doubt; 12)	65
C[C@H](CC(=O)O)N1CC(=O)N(C)c2ccc(C#Cc3ccc(C(=N)N)cc3)cc2C1=O	60
C[C@@H](CC(=O)O)N1CC(=O)N(C)c2ccc(C#Cc3ccc(C(=N)N)cc3)cc2C1=O	5
C[C@@H](CC(=O)O)N1CC(=O)N(C)c2c(Cl)cc(C#Cc3ccc(C(=N)N)cc3)cc2C1=O	7
